From: patent US8796296B2

Target: LRRK2 (Homo sapiens (Human), UniProt Q5S007, G2019S)
Sequence (Q5S007 whole entry G2019S): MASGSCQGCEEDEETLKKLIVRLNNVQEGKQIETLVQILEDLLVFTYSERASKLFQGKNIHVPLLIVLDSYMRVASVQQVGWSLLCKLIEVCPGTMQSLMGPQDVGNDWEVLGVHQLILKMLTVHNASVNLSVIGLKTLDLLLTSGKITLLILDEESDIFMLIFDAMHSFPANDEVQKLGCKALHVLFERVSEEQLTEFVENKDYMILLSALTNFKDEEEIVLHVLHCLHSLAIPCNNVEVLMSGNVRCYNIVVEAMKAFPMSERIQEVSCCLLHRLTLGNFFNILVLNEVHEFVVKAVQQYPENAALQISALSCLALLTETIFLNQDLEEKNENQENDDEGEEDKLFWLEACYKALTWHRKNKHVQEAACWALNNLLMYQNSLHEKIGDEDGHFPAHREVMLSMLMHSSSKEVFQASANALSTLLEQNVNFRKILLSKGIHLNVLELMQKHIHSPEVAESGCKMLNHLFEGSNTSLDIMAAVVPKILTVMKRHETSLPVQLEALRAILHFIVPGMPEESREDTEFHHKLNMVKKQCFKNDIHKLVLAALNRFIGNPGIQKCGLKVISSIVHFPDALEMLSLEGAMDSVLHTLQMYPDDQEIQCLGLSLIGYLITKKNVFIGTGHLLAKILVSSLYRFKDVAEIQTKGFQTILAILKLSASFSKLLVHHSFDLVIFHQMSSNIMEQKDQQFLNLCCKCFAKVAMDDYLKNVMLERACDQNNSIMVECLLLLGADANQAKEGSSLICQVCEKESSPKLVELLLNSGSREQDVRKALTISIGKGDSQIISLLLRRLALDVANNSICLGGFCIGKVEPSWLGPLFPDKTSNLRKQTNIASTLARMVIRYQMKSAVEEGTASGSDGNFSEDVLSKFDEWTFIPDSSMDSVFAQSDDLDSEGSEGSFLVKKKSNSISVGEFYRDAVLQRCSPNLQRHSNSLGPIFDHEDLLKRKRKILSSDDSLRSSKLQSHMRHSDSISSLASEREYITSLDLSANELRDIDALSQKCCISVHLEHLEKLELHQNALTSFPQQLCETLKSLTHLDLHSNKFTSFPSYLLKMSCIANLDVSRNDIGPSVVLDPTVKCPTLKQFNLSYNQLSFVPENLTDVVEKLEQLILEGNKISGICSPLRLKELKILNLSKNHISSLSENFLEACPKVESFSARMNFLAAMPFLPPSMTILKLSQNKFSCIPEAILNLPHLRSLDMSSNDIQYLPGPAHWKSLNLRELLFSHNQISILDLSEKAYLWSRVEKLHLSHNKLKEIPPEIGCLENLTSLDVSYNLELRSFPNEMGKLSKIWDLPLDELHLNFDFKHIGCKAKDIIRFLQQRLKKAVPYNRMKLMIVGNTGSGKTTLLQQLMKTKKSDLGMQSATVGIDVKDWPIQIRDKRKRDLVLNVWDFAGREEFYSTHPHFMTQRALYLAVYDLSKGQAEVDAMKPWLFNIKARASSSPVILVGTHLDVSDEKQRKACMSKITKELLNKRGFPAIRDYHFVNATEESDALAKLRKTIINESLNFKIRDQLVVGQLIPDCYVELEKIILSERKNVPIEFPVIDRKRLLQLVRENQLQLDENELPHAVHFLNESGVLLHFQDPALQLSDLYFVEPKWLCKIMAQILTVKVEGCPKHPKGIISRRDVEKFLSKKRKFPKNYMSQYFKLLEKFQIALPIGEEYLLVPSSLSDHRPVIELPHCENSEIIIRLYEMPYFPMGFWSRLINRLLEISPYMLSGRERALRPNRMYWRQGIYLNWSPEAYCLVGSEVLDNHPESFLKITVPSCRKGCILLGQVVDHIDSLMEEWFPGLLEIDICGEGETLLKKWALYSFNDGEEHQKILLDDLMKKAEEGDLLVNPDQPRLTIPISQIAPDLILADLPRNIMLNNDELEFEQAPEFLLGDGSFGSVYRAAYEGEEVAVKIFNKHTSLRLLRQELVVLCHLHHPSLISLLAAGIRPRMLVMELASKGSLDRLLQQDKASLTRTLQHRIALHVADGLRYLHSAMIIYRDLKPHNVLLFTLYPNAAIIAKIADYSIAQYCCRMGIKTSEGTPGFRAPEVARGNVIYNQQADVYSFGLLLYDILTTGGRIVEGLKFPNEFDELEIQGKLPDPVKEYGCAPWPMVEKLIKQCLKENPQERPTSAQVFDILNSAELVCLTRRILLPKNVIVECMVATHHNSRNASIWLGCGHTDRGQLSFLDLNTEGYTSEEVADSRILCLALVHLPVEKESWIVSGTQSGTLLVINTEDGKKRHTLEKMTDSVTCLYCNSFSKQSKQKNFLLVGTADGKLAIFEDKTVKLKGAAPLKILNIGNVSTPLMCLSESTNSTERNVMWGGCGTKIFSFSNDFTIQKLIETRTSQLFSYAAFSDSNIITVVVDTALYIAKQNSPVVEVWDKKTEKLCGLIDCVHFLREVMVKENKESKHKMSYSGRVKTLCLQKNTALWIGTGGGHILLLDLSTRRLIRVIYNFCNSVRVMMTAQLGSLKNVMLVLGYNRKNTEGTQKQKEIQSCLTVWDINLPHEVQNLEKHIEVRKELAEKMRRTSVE
Assay: In Vitro LRRK2 LabChip Assay (LRRK2 Ki)
Listed next: entries and their corresponding Ki.
measured-attribute: Ki (nM)

smiles-entry | tested-on | measured-attribute | unit-text | measured-number
CNc1nc(Nc2cc3c(cc2Cl)c(C(=O)N2C[C@@H]4C[C@H]2CO4)cn3C)ncc1C(F)(F)F | LRRK2 (Homo sapiens (Human), UniProt Q5S007, G2019S) | Ki | nM | 3
CNc1nc(Nc2cc3c(cc2Cl)c(C(=O)N2CCN(C)CC2)cn3C)ncc1C(F)(F)F | LRRK2 (Homo sapiens (Human), UniProt Q5S007, G2019S) | Ki | nM | 1
CNc1nc(Nc2ccc3c(c2OC)CN(C)C3=O)ncc1C(F)(F)F | LRRK2 (Homo sapiens (Human), UniProt Q5S007, G2019S) | Ki | nM | 1
CNc1nc(Nc2cc3oc(C(=O)N(C)C)cc3cc2OC)ncc1C(F)(F)F | LRRK2 (Homo sapiens (Human), UniProt Q5S007, G2019S) | Ki | nM | 1
CNc1nc(Nc2cc3nc(C)oc3cc2Cl)ncc1C(F)(F)F | LRRK2 (Homo sapiens (Human), UniProt Q5S007, G2019S) | Ki | nM | 5
CNc1nc(Nc2cc3c(cc2OC)C(=O)N(C2COC2)C3)ncc1C(F)(F)F | LRRK2 (Homo sapiens (Human), UniProt Q5S007, G2019S) | Ki | nM | 6
CNc1nc(Nc2cc3c(cc2Cl)n(C)c(=O)n3C)ncc1C(F)(F)F | LRRK2 (Homo sapiens (Human), UniProt Q5S007, G2019S) | Ki | nM | 2
CCNc1nc(Nc2cc3c(cc2OC)C(=O)N(CC(C)(C)O)C3)ncc1C(F)(F)F | LRRK2 (Homo sapiens (Human), UniProt Q5S007, G2019S) | Ki | nM | 3
CNc1nc(Nc2cc3c(cc2OC)N(C)C(=O)C(C)(C)O3)ncc1Cl | LRRK2 (Homo sapiens (Human), UniProt Q5S007, G2019S) | Ki | nM | 1
CCN1Cc2c(ccc(Nc3ncc(C(F)(F)F)c(NC)n3)c2OC)C1=O | LRRK2 (Homo sapiens (Human), UniProt Q5S007, G2019S) | Ki | nM | 9
CNc1nc(Nc2cc3c(cc2OC)C(=O)N(C)CC3)ncc1C(F)(F)F | LRRK2 (Homo sapiens (Human), UniProt Q5S007, G2019S) | Ki | nM | 7
CNc1nc(Nc2cc3c(cc2OC)C(=O)N(C)CC3)ncc1C#N | LRRK2 (Homo sapiens (Human), UniProt Q5S007, G2019S) | Ki | nM | 44
CNc1nc(Nc2cc3c(cc2Cl)c(C(=O)N2CCOCC2)cn3C)ncc1C(F)(F)F | LRRK2 (Homo sapiens (Human), UniProt Q5S007, G2019S) | Ki | nM | 3
CNc1nc(Nc2cc3c(cc2OC)C(=O)N(C)C3)ncc1C(F)(F)F | LRRK2 (Homo sapiens (Human), UniProt Q5S007, G2019S) | Ki | nM | 5
CCNc1nc(Nc2cc3c(cc2OC)C(=O)N(C2COC2)C3)ncc1C(F)(F)F | LRRK2 (Homo sapiens (Human), UniProt Q5S007, G2019S) | Ki | nM | 2
CNc1nc(Nc2cc3c(cc2Cl)C(=O)N(C)C3)ncc1C(F)(F)F | LRRK2 (Homo sapiens (Human), UniProt Q5S007, G2019S) | Ki | nM | 1
CNc1nc(Nc2cc3c(cc2OC)c(C(=O)N2CCOCC2)cn3C)ncc1C(F)(F)F | LRRK2 (Homo sapiens (Human), UniProt Q5S007, G2019S) | Ki | nM | 1
CCN1CCN(C(=O)c2cn(C)c3cc(Nc4ncc(C(F)(F)F)c(NC)n4)c(Cl)cc23)CC1 | LRRK2 (Homo sapiens (Human), UniProt Q5S007, G2019S) | Ki | nM | 1
CNc1nc(Nc2ccc3c(c2OC)CN(C2COC2)C3=O)ncc1C(F)(F)F | LRRK2 (Homo sapiens (Human), UniProt Q5S007, G2019S) | Ki | nM | 9
CNc1nc(Nc2ccc3c(c2OC)CN(C(C)(C)O)C3=O)ncc1C(F)(F)F | LRRK2 (Homo sapiens (Human), UniProt Q5S007, G2019S) | Ki | nM | 4
CNc1nc(Nc2cc3cnn(C)c(=O)c3cc2OC)ncc1C(F)(F)F | LRRK2 (Homo sapiens (Human), UniProt Q5S007, G2019S) | Ki | nM | 27
CNc1nc(Nc2cc3c(cc2OC)C(=O)N(CC(C)(C)O)C3)ncc1C(F)(F)F | LRRK2 (Homo sapiens (Human), UniProt Q5S007, G2019S) | Ki | nM | 10
CNc1nc(Nc2cc3c(cc2Cl)C(=O)N(C)CCO3)ncc1C(F)(F)F | LRRK2 (Homo sapiens (Human), UniProt Q5S007, G2019S) | Ki | nM | 3
CCNc1nc(Nc2cc3c(cc2Cl)c(C(=O)N2CCOCC2)cn3C)ncc1C(F)(F)F | LRRK2 (Homo sapiens (Human), UniProt Q5S007, G2019S) | Ki | nM | 1
CNc1nc(Nc2cc3c(cc2OC)CN(C)C3=O)ncc1C(F)(F)F | LRRK2 (Homo sapiens (Human), UniProt Q5S007, G2019S) | Ki | nM | 5
CNc1nc(Nc2cc3oc(=O)[nH]c3cc2Cl)ncc1Cl | LRRK2 (Homo sapiens (Human), UniProt Q5S007, G2019S) | Ki | nM | 4
CNc1nc(Nc2cc3oc(=O)n(C)c3cc2Cl)ncc1C(F)(F)F | LRRK2 (Homo sapiens (Human), UniProt Q5S007, G2019S) | Ki | nM | 4
CNc1nc(Nc2ccc3c(c2OC)CN(C2CC2)C3=O)ncc1C(F)(F)F | LRRK2 (Homo sapiens (Human), UniProt Q5S007, G2019S) | Ki | nM | 7
CNc1nc(Nc2cc3c(cc2OC)N(C)C(=O)C(C)(C)O3)ncc1C(F)(F)F | LRRK2 (Homo sapiens (Human), UniProt Q5S007, G2019S) | Ki | nM | 8
CNc1nc(Nc2cc3c(cc2Cl)c(C(=O)N2CCNCC2)cn3C)ncc1C(F)(F)F | LRRK2 (Homo sapiens (Human), UniProt Q5S007, G2019S) | Ki | nM | 4
CNc1nc(Nc2cc3c(cc2Cl)C(=O)N(C)C3)ncc1Cl | LRRK2 (Homo sapiens (Human), UniProt Q5S007, G2019S) | Ki | nM | 3
CNc1nc(Nc2cc3c(cc2Cl)c(C(=O)N(C)C)cn3C)ncc1C(F)(F)F | LRRK2 (Homo sapiens (Human), UniProt Q5S007, G2019S) | Ki | nM | 6
